assayed.target: T1, human GFRAL (analyte in Biacore assays) (human, UniProt Q6UXV0 19-351, limits assumed)
T1 construct: injected in solution over captured antibody; also called hGFRAL
T1 sequence: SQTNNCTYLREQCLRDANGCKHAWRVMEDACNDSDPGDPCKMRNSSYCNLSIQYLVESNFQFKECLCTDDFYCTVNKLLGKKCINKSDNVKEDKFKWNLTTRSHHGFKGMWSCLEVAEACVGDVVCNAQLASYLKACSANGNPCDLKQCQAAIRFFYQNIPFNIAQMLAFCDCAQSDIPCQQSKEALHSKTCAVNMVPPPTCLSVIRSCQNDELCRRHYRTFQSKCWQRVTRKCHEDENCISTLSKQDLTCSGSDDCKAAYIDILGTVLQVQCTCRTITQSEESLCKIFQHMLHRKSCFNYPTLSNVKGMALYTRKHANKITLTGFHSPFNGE
protocol.summary: Biacore SPR, antibody captured, human GFRAL injected
The entries below are paired with their reported Kd.
Give the value in nM but do not write nM after it.

Q: I have this binder here, humanized anti-GFRAL antibody HC-375h/LC-375j (antibody, IgG1, V domains shown, humanized 5F12) VH: QVQLVQSGAEVKKPGASVKVSCKASGYTFTDYYINWVRQAPGQRLEWIARIYPGNGNTYHNEKFKGRATLTRDKSASTAYMELSSLRSEDTAVYYCAREGLYYDYDRYFDYWGQGTLVTVSS VL: DIVLTQSPLSLPVTLGQPASISCRASESVDTYGNSFMHWYQQRPGQSPRLLIYLASNLESGVPDRFSGSGSRTDFTLKISRVEAEDVGVYYCHQNNEDPPAFGGGTKVEIK , and I need its recorded Kd.
Ans: 0.06

Here is the next item to consider.
Q: Would you kindly share the measured Kd for humanized anti-GFRAL antibody HC-375d/LC-375i (antibody, IgG1, V domains shown, humanized 5F12) VH: QVQLVQSGAEVKKPGSSVKVSCKASGYTFTDYYINWVRQAPGQGLEWIGRIYPGNGNTYHNEKFKGRATLTADKSTSTAYMELSSLRSEDTAVYYCAREGLYYDYDRYFDYWGQGTLVTVSS VL: DVVLTQSPLSLPVTLGQPASISCRASESVDTYGNSFMHWFQQRPGQSPRLLIYLASNLESGVPDRFSGSGSGTDFTLKISRVEAEDVGVYYCHQNNEDPPAFGGGTKVEIK ?
Ans: 0.062
